- TEST_SYSTEM: M tuberculosis RNA polymerase core enzyme + M. tuberculosis σA (Mycobacterium tuberculosis, UniProt P9WGY7+P9WGY9)
- Sequence (P9WGI1 whole entry): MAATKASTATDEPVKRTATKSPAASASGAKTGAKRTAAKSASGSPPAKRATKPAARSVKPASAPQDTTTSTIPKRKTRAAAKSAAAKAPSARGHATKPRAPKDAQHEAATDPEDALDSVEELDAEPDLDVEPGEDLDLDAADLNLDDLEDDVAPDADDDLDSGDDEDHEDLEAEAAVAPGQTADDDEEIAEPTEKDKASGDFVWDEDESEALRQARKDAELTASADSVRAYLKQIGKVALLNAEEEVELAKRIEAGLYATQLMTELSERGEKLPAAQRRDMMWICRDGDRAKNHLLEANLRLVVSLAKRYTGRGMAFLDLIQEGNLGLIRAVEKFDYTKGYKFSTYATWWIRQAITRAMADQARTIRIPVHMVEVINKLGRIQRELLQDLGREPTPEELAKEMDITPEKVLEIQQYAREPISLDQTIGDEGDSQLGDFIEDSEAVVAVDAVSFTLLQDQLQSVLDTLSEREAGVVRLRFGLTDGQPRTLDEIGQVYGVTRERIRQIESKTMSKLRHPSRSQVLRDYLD
- Sequence (P9WGY5 whole entry, further chain): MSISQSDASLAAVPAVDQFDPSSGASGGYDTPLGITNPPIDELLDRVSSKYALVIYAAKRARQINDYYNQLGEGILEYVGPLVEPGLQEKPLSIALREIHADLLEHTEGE
- Sequence (P9WGZ1 whole entry, further chain): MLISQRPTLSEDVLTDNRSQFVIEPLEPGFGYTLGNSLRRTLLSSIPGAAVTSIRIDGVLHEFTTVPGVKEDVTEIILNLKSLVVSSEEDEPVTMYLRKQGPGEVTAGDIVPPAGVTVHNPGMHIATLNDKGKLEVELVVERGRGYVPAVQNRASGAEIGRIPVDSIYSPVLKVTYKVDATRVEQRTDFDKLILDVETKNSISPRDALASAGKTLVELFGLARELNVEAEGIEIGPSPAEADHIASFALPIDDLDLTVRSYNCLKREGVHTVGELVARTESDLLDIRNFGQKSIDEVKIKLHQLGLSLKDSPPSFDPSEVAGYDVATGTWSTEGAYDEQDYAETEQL
- Sequence (P9WGY7 whole entry): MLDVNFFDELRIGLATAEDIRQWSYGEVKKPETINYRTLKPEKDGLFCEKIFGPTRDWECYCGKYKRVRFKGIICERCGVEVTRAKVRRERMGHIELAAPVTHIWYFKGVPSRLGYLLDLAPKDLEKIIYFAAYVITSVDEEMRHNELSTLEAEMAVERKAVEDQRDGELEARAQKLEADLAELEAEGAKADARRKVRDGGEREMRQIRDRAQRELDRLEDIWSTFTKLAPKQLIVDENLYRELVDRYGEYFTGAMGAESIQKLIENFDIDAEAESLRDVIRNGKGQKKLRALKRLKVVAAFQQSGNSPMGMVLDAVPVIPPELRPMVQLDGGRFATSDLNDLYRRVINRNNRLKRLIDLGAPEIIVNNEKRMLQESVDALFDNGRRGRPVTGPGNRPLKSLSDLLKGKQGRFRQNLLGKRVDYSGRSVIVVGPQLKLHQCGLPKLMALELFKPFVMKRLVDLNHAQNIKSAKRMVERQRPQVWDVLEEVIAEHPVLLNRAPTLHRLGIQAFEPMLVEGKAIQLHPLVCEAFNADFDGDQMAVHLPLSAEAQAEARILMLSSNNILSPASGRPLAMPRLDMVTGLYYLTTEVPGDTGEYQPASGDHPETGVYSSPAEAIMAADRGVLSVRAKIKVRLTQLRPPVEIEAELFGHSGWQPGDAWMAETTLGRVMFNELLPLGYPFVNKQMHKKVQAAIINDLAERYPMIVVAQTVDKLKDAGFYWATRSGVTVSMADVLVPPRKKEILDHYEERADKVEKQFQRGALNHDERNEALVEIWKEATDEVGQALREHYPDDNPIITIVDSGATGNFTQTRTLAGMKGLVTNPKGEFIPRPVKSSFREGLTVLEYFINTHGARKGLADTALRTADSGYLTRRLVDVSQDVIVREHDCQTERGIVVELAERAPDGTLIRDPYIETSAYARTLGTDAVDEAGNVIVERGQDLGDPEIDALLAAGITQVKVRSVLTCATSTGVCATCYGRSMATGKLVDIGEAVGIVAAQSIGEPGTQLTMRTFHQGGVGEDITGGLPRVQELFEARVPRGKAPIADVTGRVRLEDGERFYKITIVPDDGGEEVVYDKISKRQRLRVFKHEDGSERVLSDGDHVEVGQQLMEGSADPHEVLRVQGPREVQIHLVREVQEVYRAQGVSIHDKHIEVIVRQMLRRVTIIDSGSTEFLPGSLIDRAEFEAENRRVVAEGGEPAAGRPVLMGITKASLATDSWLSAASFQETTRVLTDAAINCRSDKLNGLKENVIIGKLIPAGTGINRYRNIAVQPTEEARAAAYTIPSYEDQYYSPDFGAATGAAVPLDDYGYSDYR
- Sequence (P9WGY9 whole entry): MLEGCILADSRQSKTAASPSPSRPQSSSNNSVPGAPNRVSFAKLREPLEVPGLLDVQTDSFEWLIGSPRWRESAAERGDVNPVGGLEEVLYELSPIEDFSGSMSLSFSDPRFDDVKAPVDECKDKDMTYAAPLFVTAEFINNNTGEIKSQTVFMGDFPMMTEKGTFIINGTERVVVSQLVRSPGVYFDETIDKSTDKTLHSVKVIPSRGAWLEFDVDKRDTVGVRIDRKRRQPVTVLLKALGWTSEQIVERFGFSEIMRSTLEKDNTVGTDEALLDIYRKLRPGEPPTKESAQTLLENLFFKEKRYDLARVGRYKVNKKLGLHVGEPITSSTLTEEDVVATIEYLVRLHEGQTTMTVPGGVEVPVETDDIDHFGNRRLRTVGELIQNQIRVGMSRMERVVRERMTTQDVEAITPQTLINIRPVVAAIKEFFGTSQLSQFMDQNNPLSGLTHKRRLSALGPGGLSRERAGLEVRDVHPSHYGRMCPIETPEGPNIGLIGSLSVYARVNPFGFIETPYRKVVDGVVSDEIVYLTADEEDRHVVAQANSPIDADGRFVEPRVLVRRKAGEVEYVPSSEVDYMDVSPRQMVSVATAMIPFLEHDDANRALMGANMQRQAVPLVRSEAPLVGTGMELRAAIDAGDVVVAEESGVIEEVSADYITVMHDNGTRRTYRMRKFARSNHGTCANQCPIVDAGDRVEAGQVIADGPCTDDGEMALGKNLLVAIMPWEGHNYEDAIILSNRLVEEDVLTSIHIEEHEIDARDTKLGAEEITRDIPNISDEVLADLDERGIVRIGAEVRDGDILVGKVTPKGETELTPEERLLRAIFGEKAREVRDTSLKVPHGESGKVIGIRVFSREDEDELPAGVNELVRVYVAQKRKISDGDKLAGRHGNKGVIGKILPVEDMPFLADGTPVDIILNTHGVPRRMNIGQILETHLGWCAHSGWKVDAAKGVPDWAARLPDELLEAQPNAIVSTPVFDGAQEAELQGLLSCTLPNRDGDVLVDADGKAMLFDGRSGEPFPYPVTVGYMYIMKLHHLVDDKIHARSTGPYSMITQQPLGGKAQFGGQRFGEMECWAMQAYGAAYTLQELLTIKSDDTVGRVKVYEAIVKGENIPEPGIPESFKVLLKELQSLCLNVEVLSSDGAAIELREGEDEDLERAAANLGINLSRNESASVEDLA
- TEST: Fluorescence-detected assay of inhibition of Mycobacterium tuberculosis RNA polymerase
- CONDITION: read-out: IC50 Mt RNAP
Quick rule for you: IC50 under 4 µM gets Fulfilled, anything else gets Not fulfilled.

O=C(CCc1ccc(Br)cc1)c1c(O)cc(O)cc1O; Fulfilled
CC(C)c1ccc(CCC(=O)c2c(O)cc(O)cc2O)cc1; Not fulfilled
O=C(CCc1ccc(F)cc1)c1c(O)cc(O)cc1O; Not fulfilled
O=C(CCc1ccc(C(F)(F)F)cc1)c1c(O)cc(O)cc1O; Fulfilled

Req: Take the compound "COc1ccccc1CCC(=O)c1c(O)cc(O)cc1O" and say whether its IC50 is less than 4 µM.
Resp: Not fulfilled

Req: Please state whether IC50 is below 4 µM for "O=C(CCc1ccccc1Cl)c1c(O)cc(O)cc1O"
Resp: Fulfilled

Req: Threshold test, IC50 < 4 µM: "CCc1ccc(CCC(=O)c2c(O)cc(O)cc2O)cc1"
Resp: Fulfilled

Req: Confirm or reject: IC50 of "O=C(CCc1ccccc1C(F)(F)F)c1c(O)cc(O)cc1O" lies strictly below 4 µM
Resp: Fulfilled

Req: API: query returns whether the compound falls strictly under 4 µM in IC50. Query: "O=C(CCc1ccc(Cl)cc1)c1c(O)cc(O)cc1O"
Resp: Fulfilled

Req: Is 4 µM strictly greater than the compound's reported IC50? compound: "CC(C)(C)c1ccc(CCC(=O)c2c(O)cc(O)cc2O)cc1"
Resp: Not fulfilled

The reported measurements were obtained from patent US9517994B2.
